B1: Azoarcus group I ribozyme (parent)
chain: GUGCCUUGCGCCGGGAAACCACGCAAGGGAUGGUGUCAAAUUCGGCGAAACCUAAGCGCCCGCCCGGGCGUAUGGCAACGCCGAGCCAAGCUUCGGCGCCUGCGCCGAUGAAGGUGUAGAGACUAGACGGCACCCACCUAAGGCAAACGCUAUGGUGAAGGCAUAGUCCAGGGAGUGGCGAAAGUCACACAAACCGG

Variants of: B1
Test: reverse-splicing fitness (ratio to wild type); higher = more active; in vitro selection; Mg2+ level not given
Class (required): determined from reverse-splicing fitness; valid ranges are category 1 = under 0.007, category 2 = from 0.007 up to 0.01, category 3 = 0.01 and over

Illustrative cases are given below, each with its answer.
mutant.label: C82G A111G A145U C169A
cat: category 1
//
mutant.label: C82A A111U A120C C169G U176C
cat: category 3
//
mutant.label: C82A A111C A120G A145G C150G C169G U176A
cat: category 2
//
mutant.label: A111C A120U C150A C169U U176G
cat: category 1
//
mutant.label: C82A C150G C169A U176A
cat: category 3
//
mutant.label: C82U A111U A120U A145U C150U C169G U176C
cat: category 1
//
mutant.label: C82A A120G A145U C150G C169U U176C
cat: category 3
//
mutant.label: C82G A111U A120C A145C C150G C169U U176C
cat: category 3

# next variant below
For the record C82G A111C A120G A145C C150G U176A , report the class its reverse-splicing fitness corresponds to.
category 2

Recorded values, source the RNAGym collection of RNA variant scans (doi:10.1093/molbev/msab373).
